Assay: self-splicing fitness, log relative to wild type (ln ratio); higher = more splicing; Tetrahymena group I intron in knt gene, E. coli kanamycin selection, DiMSum; sequences stand for … in CUCUCU…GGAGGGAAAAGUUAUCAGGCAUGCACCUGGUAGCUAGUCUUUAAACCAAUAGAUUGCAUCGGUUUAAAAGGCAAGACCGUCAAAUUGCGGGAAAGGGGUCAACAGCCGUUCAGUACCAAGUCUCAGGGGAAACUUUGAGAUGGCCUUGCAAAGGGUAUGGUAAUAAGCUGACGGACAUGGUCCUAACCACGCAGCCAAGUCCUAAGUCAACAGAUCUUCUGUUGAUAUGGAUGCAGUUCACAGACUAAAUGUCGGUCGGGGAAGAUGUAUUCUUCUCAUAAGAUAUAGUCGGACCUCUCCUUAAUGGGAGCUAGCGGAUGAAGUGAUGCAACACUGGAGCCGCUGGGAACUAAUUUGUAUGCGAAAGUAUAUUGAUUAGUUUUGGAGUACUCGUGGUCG;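 further: selection with 25 µg/mL kanamycin versus none on LB agar overnight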
Settings: 37 °C
Listing: self-splicing fitness (ln) of selected sequences
quantity.measured: self-splicing fitness (ln)

sequence_content=CAGCAGCAAUAUUACGCUCA readout_value=-0.0891
sequence_content=GGGUAGCAAUAUUACGUAGG readout_value=-1.5
sequence_content=CAACAGCAAUAUUACGGCUG readout_value=-1.24
sequence_content=UCGUAGCAAUAUUACGUCAG readout_value=-1.89
sequence_content=GGAGAGCAAUAUUACGUAGG readout_value=-0.82
sequence_content=AUGGAGCAAUAUUACGGUUA readout_value=-2.16
sequence_content=CAUCAGCAAUAUUACGAGGA readout_value=-2.6
sequence_content=CCACAGCAAUAUUACGGUUG readout_value=-0.701
sequence_content=GCCUAGCAAUAUUACGUUUU readout_value=-0.614
sequence_content=AUUAAGCAAUAUUACGUCGU readout_value=-0.383
sequence_content=UGUUAGCAAUAUUACGAGCU readout_value=0.455
sequence_content=AAGAAGCAAUAUUACGGCAG readout_value=-0.774
sequence_content=AGGGAGCAAUAUUACGCAAG readout_value=-1.54
sequence_content=GUGCAGCAAUAUUACGCGAG readout_value=-1.7
sequence_content=UUGCAGCAAUAUUACGCAUU readout_value=-1.42
sequence_content=AGCGAGCAAUAUUACGAGGU readout_value=-2.48
sequence_content=GACGAGCAAUAUUACGAGUC readout_value=-2.85
sequence_content=GGCCAGCAAUAUUACGCAAU readout_value=-1.2
sequence_content=UCGUAGCAAUAUUACGCGGG readout_value=-0.254
sequence_content=CGUUAGCAAUAUUACGUAGU readout_value=-2.85
sequence_content=GUAUAGCAAUAUUACGCCGU readout_value=-0.947
sequence_content=CCAUAGCAAUAUUACGUUGU readout_value=-2.66
sequence_content=UUCAAGCAAUAUUACGAUUG readout_value=-2.24
sequence_content=GUUCAGCAAUAUUACGAUCU readout_value=0.0505
sequence_content=GUUAAGCAAUAUUACGAUUU readout_value=-0.00651
sequence_content=GAGUAGCAAUAUUACGGAGA readout_value=-2.12
sequence_content=ACUCAGCAAUAUUACGGGAC readout_value=-1.6
sequence_content=CACAAGCAAUAUUACGUCAC readout_value=-2.62
sequence_content=GAGCAGCAAUAUUACGCCCG readout_value=-0.798
sequence_content=AUACAGCAAUAUUACGUCGG readout_value=-2.13
sequence_content=ACGGAGCAAUAUUACGGGCG readout_value=-0.224
sequence_content=CGAUAGCAAUAUUACGACGA readout_value=-0.547
sequence_content=AUAGAGCAAUAUUACGAAUC readout_value=-2.63
sequence_content=GCCAAGCAAUAUUACGUCGC readout_value=-1.23

src = the supplement of paper PMC7877785
